- Test system: Vero cells
- procedureSummary: Cytotoxicity MTT assay in Vero cells (MNTD, CC50)
- Format: cell-based, African green monkey
- experimentalContext: Table S1; Vero cells
Entries and their MNTD
observedProperty: MNTD (µM)

[[record]]
compound = "O=C(N/N=C/c1ccccc1Br)c1ccncc1"
observedproperty = "MNTD"
measurednumber = 31.25

[[record]]
compound = "CCOc1ccc(/C=N/NC(=O)c2cccnc2)cc1OC"
observedproperty = "MNTD"
measurednumber = 31.25

[[record]]
compound = "O=C(NNC(=O)c1ccncc1)c1ccccc1 [DCR9, N'-benzoylisonicotinohydrazide]"
observedproperty = "MNTD"
measurednumber = 31.25


----------
- Tested on: Vero cells
- procedureSummary: Cytotoxicity MTT assay in Vero cells (MNTD, CC50)
- Format: cell-based, African green monkey
- experimentalContext: Table S1; Vero cells
Rule: measured MNTD below 100 µM gets 1 (yes); anything equal to or greater than 100 µM gets 0 (no).

[[record]]
compound = "O=C1NC(c2ccc(F)cc2)c2c(ccc3ccccc23)O1 (stereo not shown)"
discretelabel = "1 (yes)"

[[record]]
compound = "CCOc1ccc(C2NC(=O)NC(C)=C2C(=O)OCCN(C)C)cc1 (stereo not shown)"
discretelabel = "1 (yes)"

[[record]]
compound = "CCOc1ccc(C2NC(=O)Oc3ccc4ccccc4c32)cc1 (stereo not shown)"
discretelabel = "0 (no)"

[[record]]
compound = "CC1(C)CC(=O)C2=C(C1)OC1=C(C(=O)CC(C)(C)C1)C2c1ccc([N+](=O)[O-])cc1"
discretelabel = "1 (yes)"

[[record]]
compound = "O=C(NNC(=O)c1ccccc1Cl)c1cccnc1 [DCR5, N'-(2-chlorobenzoyl)nicotinohydrazide]"
discretelabel = "1 (yes)"

[[record]]
compound = "CC1=C(C(=O)OCCN(C)C)C(c2ccc(O)cc2)NC(=O)N1 (stereo not shown)"
discretelabel = "1 (yes)"

[[record]]
compound = "N#Cc1ccccc1NCc1ccccc1"
discretelabel = "0 (no)"

[[record]]
compound = "O=C(c1cccnc1)n1nc(-c2ccc(O)cc2)cc1-c1cccc([N+](=O)[O-])c1"
discretelabel = "1 (yes)"

[[record]]
compound = "COc1ccc(C2NC(=O)NC(C)=C2C(=O)OCCC(C)C)cc1 (stereo not shown)"
discretelabel = "0 (no)"

[[record]]
compound = "Cc1ccc(C2C3=C(CC(C)(C)CC3=O)OC3=C2C(=O)CC(C)(C)C3)cc1"
discretelabel = "0 (no)"

[[record]]
compound = "C#CCOC(=O)C1=C(C)NC(=O)NC1c1ccc(OC)cc1 (stereo not shown)"
discretelabel = "0 (no)"

[[record]]
compound = "CC1(C)CC(=O)C2=C(C1)OC1=C(C(=O)CC(C)(C)C1)C2c1ccccn1"
discretelabel = "0 (no)"

[[record]]
compound = "C#CCOC(=O)C1=C(C)NC(=O)NC1c1ccc(F)cc1 (stereo not shown)"
discretelabel = "0 (no)"


----------
- Tested on: Vero cells
- procedureSummary: Cytotoxicity MTT assay in Vero cells (MNTD, CC50)
- Assay type: cell-based, African green monkey
- experimentalContext: Table S1; Vero cells
observedProperty: MNTD (µM)

[[record]]
molecule = "O=C(O)c1ccc(-c2cc(-c3ccc(O)cc3)nn2C(=O)c2cccnc2)cc1"
assayedtarget = "Vero cells"
measurednumber = 31.25

[[record]]
molecule = "COc1ccc(/C(=N\\NC(=O)c2cccnc2)c2ccccc2)cc1"
assayedtarget = "Vero cells"
measurednumber = 31.25

[[record]]
molecule = "CCOc1cc(-c2cc(-c3ccc(O)cc3)nn2C(=O)c2cccnc2)ccc1O"
assayedtarget = "Vero cells"
measurednumber = 15.62

[[record]]
molecule = "CCOc1ccc(-c2cc(-c3ccc(O)cc3)nn2C(=O)c2cccnc2)cc1OC"
assayedtarget = "Vero cells"
measurednumber = 15.62

[[record]]
molecule = "COc1ccc(C2NC(=O)NC(C)=C2C(=O)OCCN(C)C)cc1 (centres unmarked)"
assayedtarget = "Vero cells"
measurednumber = 62.5

[[record]]
molecule = "Cc1ccc(-c2cc(-c3ccc(O)cc3)nn2C(=O)c2cccnc2)cc1 [DCR57]"
assayedtarget = "Vero cells"
measurednumber = 31.25

[[record]]
molecule = "CC1=C(C(=O)OCCN(C)C)C(c2ccc(N(C)C)cc2)NC(=O)N1 (centres unmarked)"
assayedtarget = "Vero cells"
measurednumber = 62.5

[[record]]
molecule = "C#CCOC(=O)C1=C(C)NC(=O)NC1c1cccc(Cl)c1 (centres unmarked)"
assayedtarget = "Vero cells"
measurednumber = 205.1

[[record]]
molecule = "CCc1ccc(C2c3c(ccc4ccccc34)Oc3ccc4ccccc4c32)cc1"
assayedtarget = "Vero cells"
measurednumber = 31.25

[[record]]
molecule = "C#CCOC(=O)C1=C(C)NC(=O)NC1c1ccccc1 (centres unmarked)"
assayedtarget = "Vero cells"
measurednumber = 462.48

[[record]]
molecule = "O=C(N/N=C/c1ccc(Cl)cc1)c1ccncc1"
assayedtarget = "Vero cells"
measurednumber = 31.25

[[record]]
molecule = "CC1=C(C(=O)OCC[N+](C)(C)C)C(c2ccc([N+](=O)[O-])cc2)NC(=O)N1 (centres unmarked)"
assayedtarget = "Vero cells"
measurednumber = 125

[[record]]
molecule = "Cc1ccc(/C=N/NC(=O)c2cccnc2)cc1"
assayedtarget = "Vero cells"
measurednumber = 31.25

[[record]]
molecule = "Clc1ncccc1Oc1cc2c(c3ncccc13)Oc1ncccc1O2"
assayedtarget = "Vero cells"
measurednumber = 50

[[record]]
molecule = "O=C1NC(c2ccc(Cl)cc2)c2c(ccc3ccccc23)O1 (centres unmarked)"
assayedtarget = "Vero cells"
measurednumber = 31.25

[[record]]
molecule = "C#CCOC(=O)C1=C(C)NC(=O)NC1c1ccc(C(F)(F)F)cc1 (centres unmarked)"
assayedtarget = "Vero cells"
measurednumber = 369.52

[[record]]
molecule = "CC(=O)NNC(=O)c1cccnc1 [DCR7, N'-acetylnicotinohydrazide]"
assayedtarget = "Vero cells"
measurednumber = 62.5

[[record]]
molecule = "COc1ccc(Br)cc1-c1cc(-c2ccc(O)cc2)nn1C(=O)c1cccnc1"
assayedtarget = "Vero cells"
measurednumber = 31.25

[[record]]
molecule = "COc1ccc(C2C3=C(CC(C)(C)CC3=O)OC3=C2C(=O)CC(C)(C)C3)cc1"
assayedtarget = "Vero cells"
measurednumber = 125

[[record]]
molecule = "N#Cc1c(F)cccc1N1CCCCC1"
assayedtarget = "Vero cells"
measurednumber = 125

